measurement target: KRAS G12C (Homo sapiens (Human), UniProt P01116, G12C)
Sequence (P01116 other isoform, or with tags, fused parts or gaps G12C): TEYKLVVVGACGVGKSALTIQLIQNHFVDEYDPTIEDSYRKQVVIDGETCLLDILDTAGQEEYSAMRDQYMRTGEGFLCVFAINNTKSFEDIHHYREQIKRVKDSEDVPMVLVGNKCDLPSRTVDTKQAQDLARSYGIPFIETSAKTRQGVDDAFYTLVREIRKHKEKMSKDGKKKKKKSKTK
method description: SPR binding affinity and kinetics, GTPγS-loaded KRAS G12C
setup conditions: GTPγS loaded protein, geomean
pKd: −log10 of the molar value.
Cut-off 8 on pKd, inclusive. At or above means true; below means false.

Task item: Evaluate C=C1CN2CCC[C@@]2(COc2nc3c4c(nc(-c5c6c(cc7[nH]ncc57)CCC[C@@H]6C)c(F)c4n2)OC[C@@H]2COCCCN32)C1 [Example 32] : pKd at minimum 8?
Reply: false

Task item: Same lookup for Fc1c(-c2c(C3CC3)c(Cl)cc3[nH]ncc23)nc2c3c(nc(OC[C@@]45CCCN4CC(=C4CCOCC4)C5)nc13)N1CCCOC[C@H]1CO2 [Example 42] , please.
Reply: false

Task item: Same lookup for C=C1CN2CCC[C@@]2(COc2nc3c4c(nc(-c5c(C(C)C)c(Cl)cc6[nH]ncc56)c(F)c4n2)OC[C@@H]2COCCCN32)C1 [Example 24] , please.
Reply: true

Task item: Same lookup for Fc1c(-c2c(C3CC3)c(Cl)cc3[nH]ncc23)nc2c3c(nc(OC[C@@]45CCCN4CC4(CC4)C5)nc13)N1CCCOC[C@H]1CO2 [Example 18] , please.
Reply: false

Task item: Same lookup for COC/C=C1\CN2CCC[C@@]2(COc2nc3c4c(nc(-c5c6c(cc7[nH]ncc57)CCC[C@H]6OC)c(F)c4n2)OC[C@@H]2COCCCN32)C1 (relative stereo) [Example 59] , please.
Reply: false

Task item: Same lookup for Fc1c(-c2c(Cl)c(Cl)cc3[nH]ncc23)nc2c3c(nc(OC[C@@]45CCCN4C[C@H](F)C5)nc13)N1CCCC[C@H]1CO2 [Example 4] , please.
Reply: false

Task item: Same lookup for C[C@@H]1CCCc2cc3[nH]ncc3c(-c3nc4c5c(nc(OC[C@@]67CCCN6C/C(=C\F)C7)nc5c3F)N3CCCOC[C@H]3CO4)c21 [Example 54] , please.
Reply: true

Task item: Same lookup for C=C1CN2CCC[C@@]2(COc2nc3c4c(nc(-c5c([C@@H]6C[C@@H]6C)c(Cl)cc6[nH]ncc56)c(F)c4n2)OC[C@@H]2COCCCN32)C1 (single isomer, unassigned) [Example 30] , please.
Reply: true

Task item: Same lookup for C=C1CN2CC[C@@H](O)[C@@]2(COc2nc3c4c(nc(-c5c(C6CC6)c(Cl)cc6[nH]ncc56)c(F)c4n2)OC[C@@H]2COCCCN32)C1 (relative stereo) [Example 45] , please.
Reply: true

Task item: Same lookup for C=C1CN2CCC[C@@]2(COc2nc3c4c(nc(-c5c(C(F)(F)F)c(Cl)cc6[nH]ncc56)c(F)c4n2)OC[C@@H]2COCCCN32)C1 [Example 13] , please.
Reply: true

* * *

measurement target: KRAS Wild Type (Homo sapiens (Human), UniProt P01116)
Sequence (P01116 other isoform, or with tags, fused parts or gaps): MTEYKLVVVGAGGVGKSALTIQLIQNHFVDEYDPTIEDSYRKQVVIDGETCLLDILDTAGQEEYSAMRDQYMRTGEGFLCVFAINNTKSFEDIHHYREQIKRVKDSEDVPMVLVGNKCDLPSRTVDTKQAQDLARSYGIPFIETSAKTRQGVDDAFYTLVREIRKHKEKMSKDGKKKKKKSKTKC
method description: SPR binding affinity and kinetics, GDP-loaded KRAS Wild Type
setup conditions: GDP loaded protein, geomean
From the text: No additional regeneration was used. Compound dissociation was monitored for at least 3600 seconds. […] No additional regeneration was used. The adequateness of the fit was judged by c2 values and the randomness of residue distribution.
endpoint label: Kd (nM)
Report the value in nM with no unit label.

Task item: Hi! What's the reported Kd for C=C1CN2CCC[C@@]2(COc2nc3c4c(nc(-c5c(Cl)ccc6[nH]ncc56)c(F)c4n2)OC[C@@H]2COCCCN32)C1 [Example 6] on KRAS Wild Type (Homo sapiens (Human), UniProt P01116)?
Reply: 2.51

Task item: Same lookup for C=C1CN2CCC[C@@]2(COc2nc3c4c(nc(-c5c(C6CC6)c(Cl)cc6[nH]ncc56)c(F)c4n2)OC[C@@H]2COCCCN32)C1 [Example 2] , please.
Reply: 0.004

Task item: Same lookup for Fc1c(-c2c(Cl)c(Cl)cc3[nH]ncc23)nc2c3c(nc(OC[C@@]45CCCN4C[C@H](F)C5)nc13)N1CCCC[C@H]1CO2 [Example 4] , please.
Reply: 7.72

Task item: Same lookup for C=C1CN2CCC[C@@]2(COc2nc3c4c(nc(-c5c(Cl)c(Cl)cc6[nH]ncc56)c(F)c4n2)OC[C@@H]2COCCCN32)C1 [Example 11] , please.
Reply: 0.091

Task item: Same lookup for C=C1CN2CCC[C@@]2(COc2nc3c4c(nc(-c5c(C)ccc6[nH]ncc56)c(F)c4n2)OC[C@@H]2COCCCN32)C1 [Example 5] , please.
Reply: 5.42

Task item: Same lookup for C=C1CN2CCC[C@@]2(COc2nc3c4c(nc(-c5c(C(F)F)ccc6[nH]ncc56)c(F)c4n2)OC[C@@H]2COCCCN32)C1 [Example 10] , please.
Reply: 8.03

Task item: Same lookup for Fc1c(-c2c(C3CC3)c(Cl)cc3[nH]ncc23)nc2c3c(nc(OC[C@@]45CCCN4C[C@H](F)C5)nc13)N1CCCOC[C@H]1CO2 [Example 1] , please.
Reply: 0.038

Task item: Same lookup for C=C1CN2CCC[C@@]2(COc2nc3c4c(nc(-c5c(C(F)(F)F)ccc6[nH]ncc56)c(F)c4n2)OC[C@@H]2COCCCN32)C1 [Example 12] , please.
Reply: 0.257
